Provide the recorded pKd for the entries that follow.
Target: T1, Recombinant human Notch4 (human, UniProt Q99466 24-1447, limits assumed)
T1 construct: also called Notch4 analyte; Notch4 (antigen)
T1 sequence: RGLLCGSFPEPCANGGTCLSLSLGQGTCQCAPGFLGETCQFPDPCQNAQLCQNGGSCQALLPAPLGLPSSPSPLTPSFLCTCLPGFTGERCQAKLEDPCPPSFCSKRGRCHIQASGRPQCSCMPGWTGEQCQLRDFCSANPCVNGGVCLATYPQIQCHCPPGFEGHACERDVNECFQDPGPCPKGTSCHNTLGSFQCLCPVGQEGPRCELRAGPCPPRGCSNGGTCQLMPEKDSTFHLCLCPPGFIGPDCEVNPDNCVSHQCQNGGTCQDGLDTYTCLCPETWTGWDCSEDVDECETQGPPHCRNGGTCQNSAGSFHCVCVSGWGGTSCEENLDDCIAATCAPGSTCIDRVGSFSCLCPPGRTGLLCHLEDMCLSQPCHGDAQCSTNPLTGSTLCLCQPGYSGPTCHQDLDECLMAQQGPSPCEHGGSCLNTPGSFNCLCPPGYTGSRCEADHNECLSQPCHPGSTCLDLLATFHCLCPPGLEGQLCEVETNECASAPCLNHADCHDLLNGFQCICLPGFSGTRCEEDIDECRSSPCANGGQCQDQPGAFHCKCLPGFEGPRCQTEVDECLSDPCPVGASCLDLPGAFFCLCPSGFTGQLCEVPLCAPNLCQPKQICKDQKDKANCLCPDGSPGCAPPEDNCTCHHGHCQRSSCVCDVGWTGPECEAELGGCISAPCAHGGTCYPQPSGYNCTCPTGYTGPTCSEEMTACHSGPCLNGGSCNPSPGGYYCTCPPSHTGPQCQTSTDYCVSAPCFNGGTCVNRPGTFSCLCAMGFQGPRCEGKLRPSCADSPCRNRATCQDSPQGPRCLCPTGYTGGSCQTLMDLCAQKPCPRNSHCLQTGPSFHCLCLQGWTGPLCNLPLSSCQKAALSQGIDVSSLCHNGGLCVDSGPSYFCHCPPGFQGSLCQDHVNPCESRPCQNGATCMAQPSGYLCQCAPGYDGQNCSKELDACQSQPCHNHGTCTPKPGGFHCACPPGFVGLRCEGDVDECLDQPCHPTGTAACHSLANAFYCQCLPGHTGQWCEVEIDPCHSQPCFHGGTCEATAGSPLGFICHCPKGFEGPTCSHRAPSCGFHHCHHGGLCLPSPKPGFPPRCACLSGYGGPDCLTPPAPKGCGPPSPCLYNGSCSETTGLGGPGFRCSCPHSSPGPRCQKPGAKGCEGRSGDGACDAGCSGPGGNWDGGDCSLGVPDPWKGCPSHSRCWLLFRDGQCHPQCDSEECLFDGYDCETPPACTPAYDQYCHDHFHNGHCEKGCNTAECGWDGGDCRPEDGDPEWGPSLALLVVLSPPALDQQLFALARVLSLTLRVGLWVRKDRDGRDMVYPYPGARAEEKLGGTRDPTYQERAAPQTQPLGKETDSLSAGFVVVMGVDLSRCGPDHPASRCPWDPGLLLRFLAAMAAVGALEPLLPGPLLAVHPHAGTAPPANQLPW
Assay: SPR, antibody captured by anti-human IgG Fc on HC30M chip, Notch4 as analyte
// scale note: pKd = -log10(conc_M); give the bare number

### Prompt For the binder shown here, iggrefmat 1-12 (antibody, V domains shown, Tested as an antibody captured by anti-human IgG Fc; also called C02-Lib1_Pl1) VH: QVQLVQSGAEVKKPGASVKVSCKVSGYPFSNYAIHWVRQAPGKGLEWMGGISPYTGKTIYAQKFQGRVTMTEDTSTDTAYMELSSLKSEDTAVYYCAFSRYYYDSSGYHGDAFDIWGQGTMVTVSS VL: DIQMTQSPSSVSASVGDRVTITCRASQGISNHLAWYQQKPGKAPKLLIYDASNRATGVPSRFSGSGSGTDFTLTISSLQPEDFANYYCQQSFTIPSFGGGTKVEIK , give the reported pKd.
### Response 8.82

### Prompt For the binder shown here, iggrefmat 3-13 (antibody, V domains shown, Tested as an antibody captured by anti-human IgG Fc; also called C11-Lib4-Pl1) VH: EVQLVQSGAEVKKPGASVKVSCKASGFPFSTSAISWVRQAPGQGLEWMGWMDPATGQTNYAQKLQGRGTMTTDPSTSTAYMELRSLRSDDTAVYYCARALRYCSGGRCQGFHGMDVWGQGTTVTVSS VL: ESALTQPASVSGSPGQSITISCTGTNIAAKSVSWYQQHPGKAPKLMIYANINRPPGVSNRFSGSKSGNTASLTISGLQAEDEADYYCSSYTSSSWMFGGGTKLTVL , give the reported pKd.
### Response 8.60

### Prompt For the binder shown here, C08-Lib3-Pl1 (antibody, V domains shown, Tested as an antibody captured by anti-human IgG Fc) VH: EVQLVESGGGLVQPGGSLRLSCAASGLPFSSYGMSWVRQAPGKGLELVASIGTSGTRTYYPDSVKGRFTISRDNAKNSLYLQMNSLRAEDTAVYYCARLGEGSGWSYFDYWGQGTLVTVSS VL: DIVMTQSPLSLPVTPGEPASISCRSSQSLLHSTGYNYLHWYLQKPGQSPQLLIYSGSYRASGVPDRFSGSGSGTDFTLKISRVEAEDVGVYYCQQGYSTPHTFGGGTKVEIK , give the reported pKd.
### Response 9.39

### Prompt For the binder shown here, iggrefmat 1-34 (antibody, V domains shown, Tested as an antibody captured by anti-human IgG Fc) VH: QVQLVQSGAEVKKPGASVKVSCKVSGYTLTKSSIHWVRQAPGKGLEWMGGINPSAGTRIYAQKFQGRVTMTEDTSTDTAYMELSSLKSEDTAVYYCVRGSNPNVWGKGTTVTVSS VL: DIQMTQSPSSVSASVGDRVTITCRASQTIGNYLAWYQQKPGKAPKLLIYKASTLASGVPSRFSGSGSGTDFTLTISSLQPEDFANYYCQQYNFYPRTFGGGTKVEIK , give the reported pKd.
### Response 8.82

### Prompt For the binder shown here, B07-Lib3-Pl1 (antibody, V domains shown, Tested as an antibody captured by anti-human IgG Fc) VH: EVQLVESGGGLVQPGGSLRLSCAASGFTLDNYVMSWVRQAPGKGLELVASISGSSADTYYPDSVKGRFTISRDNAKNSLYLQMNSLRAEDTAVYYCAKGIAAGYGMDVWGQGTTVTVSS VL: DIVMTQSPLSLPVTPGEPASISCRSSQSLLHSSGYTYLHWYLQKPGQSPQLLIYATSYRAPGVPDRFSGSGSGTDFTLKISRVEAEDVGVYYCMQATHPYTFGGGTKVEIK , give the reported pKd.
### Response 8.30

### Prompt For the binder shown here, iggrefmat 6-28 (antibody, V domains shown, Tested as an antibody captured by anti-human IgG Fc; also called E03-Lib8H1N4) VH: EVQLVESGGGLVQPGRSLRLSCAASGFSFSDYHMHWVRQAPGKGLEWVGAISGSAYTTDYADSVEGRFTISRDNAKNSLYLQMNSLRAEDTAVYYCARDDYNKDGFDPWGQGTLVTVSS VL: DIQMTQSPSSLSASVGDRVTITCRASQSIYSYLAWYQQKPGKAPKLLIYDASRLQSGVPSRFSGSGSGTDFTLTISSLQPEDVATYYCQQGYRSPITFGGGTKVEIK , give the reported pKd.
### Response 8.47
